Cited source: PubChem BioAssay (NCI)

For each record, write down the corresponding TGI.
Tested on: RXF 393 renal
Experiment: NCI tumour cell line growth inhibition, 48 h

In the examples that follow, each entry is paired with its recorded TGI.
| Molecule | Target System | TGI |
| --- | --- | --- |
| CC(=O)OC(Cn1cncn1)(Cn1cncn1)c1ccc(Cl)cc1Cl | RXF 393 renal | > 100 µM |
| S=c1cc(-c2ccc3c(c2)OCO3)s[nH]1 | RXF 393 renal | > 100 µM |
| COC(=O)/C(C#N)=C(/NCCN)Nc1ccccc1 | RXF 393 renal | > 100 µM |

Fill in TGI for each of the 5 molecules listed.
1. CCN(C(=O)/C=C/c1ccco1)c1ccccc1
2. COc1ccc(N(C(=O)Nc2ccc(Cl)c(Cl)c2)C2c3cccn3C(=O)N2c2ccc(Cl)c(Cl)c2)cc1 (configuration not stated)
3. O=c1[nH]nc(Cc2ccccc2)n1/N=C/c1ccncc1
4. O=c1[nH]c(=O)n(C2CC(O)C(CO)O2)cc1OCc1ccccc1 (configuration not stated)
5. Oc1ccccc1-c1nn(CNc2ccccc2Cl)c(=S)o1

# output
1. > 100 µM
2. > 100 µM
3. > 100 µM
4. > 100 µM
5. > 100 µM

Please state TGI for every molecule in the list that follows.
1. c1c[nH]c(CN2CCOCC2)n1
2. COC(=O)C1(C(=O)OC)CC(=O)c2cc3c(cc2-c2c(cc(OC)c(OC)c2OC)C1)OCO3
3. C[C@H]1CCCC(O)C(O)[C@@H]2C[C@H](O[Si](C)(C)C(C)(C)C)C[C@H]2[C@H](O[Si](C)(C)C(C)(C)C)C(O)C(O)C(=O)O1 (some centres not stated)

# output
1. > 100 µM
2. > 211 µM
3. > 100 µM

----------
System: RPMI-8226 leukemia
Test: NCI tumour cell line growth inhibition, 48 h
Param threshold (4 µM) applies to TGI; output y when value >= threshold, n when value < threshold.

# input In plain terms: is recorded TGI at least 4 µM for C=C1C(O)CC[C@]2(C)C1C1OC(C)(C)O[C@]13CC(=O)C(C)=C([C@H]1OC(C)(C)OC12)C3(C)C (stereo partly specified) ?
# output y

# input Could you please find out whether Cc1ccccc1C(=O)N1CCN(C(=O)c2ccccc2C)CC1 has TGI that meets 4 µM or exceeds it?
# output y

# input Please check the record COc1c(O)c2c(=O)cc(OC)c3c4c(OC)cc(=O)c5c(O)c(OC)c6c(c(c1C(C(C)O)C6C(C)O)c23)c54 (stereo unspecified) and state if its TGI is at or above 4 µM.
# output y

# input Entry C=C1C(=O)O[C@H]2[C@H]1CC/C(COC(=O)NCC(C)c1ccc(CC(C)C)cc1)=C\CC[C@@]1(C)O[C@@H]21 (stereo partly specified) : is its TGI no less than 4 µM?
# output n

# input Is it the case that COC1=C(C)C(=O)c2c(c(COC(N)=O)c3n2CC(OC(C)=O)C3OC(C)=O)C1=O (stereo unspecified) has TGI reaching or exceeding 4 µM?
# output n

# input Confirm if TGI reported for the compound CC(C)(C)c1cc(C(=O)/C=C/c2ccc3c(c2)OCO3)cc(C(C)(C)C)c1O is 4 µM or above.
# output y

# input API: above_or_equal(metric=TGI, cutoff=4 µM) for item O=c1c2cc(Br)ccc2nc(CCl)n1-c1ccc(O)c([N+](=O)[O-])c1
# output y

# input Determine whether this compound has TGI no lower than 4 µM: C=C1C(=O)O[C@H]2[C@H]1CC/C(C=Nc1c(N)cc(C(F)(F)F)cc1Br)=C\CC[C@@]1(C)O[C@@H]21
# output n

# input Is TGI for O=[N+]([O-])c1ccc2c(c1)C1=NN(c3ccccc3)C(c3ccccc3Br)C1CCC2 (stereo unspecified) at or above 4 µM?
# output y

# input # check: TGI of CC(=O)OCc1c(O)c2c(c(O)c1COC(C)=O)C(=O)C=CC2=O is greater than or equal to 4 µM
# output y

# input In plain terms: is recorded TGI at least 4 µM for c1ccc2[nH]c(-c3ccc(Nc4nc(N5CCCCC5)nc(N5CCOCC5)n4)cc3)nc2c1 ?
# output y

# input Item CC1(C)[C@H]2CC[C@@]13C(=O)N1C(=O)O[C@@H]([C@H]1Cl)C(Cl)(COCc1ccccc1)C(=O)OCCO[C@H]3C2 (stereo partly specified) with TGI of 4 µM or above?
# output y

# input hey, is TGI for this one >= 4 µM? O=c1cc(/C=C/c2ccccc2)[nH]c2cc3c(cc12)OCO3
# output n

# input # check: TGI of CN(C)CC1CCC(CN(C)C)C1=O (stereo unspecified) is greater than or equal to 4 µM
# output n

# input Dear colleague, could you confirm whether O=C1NCN(c2ccccc2)C12CCN(CCCN1CCN(CCOC(c3ccc(F)cc3)c3ccc(F)cc3)CC1)CC2 has TGI at or above 4 µM?
# output y

# input State whether the measured TGI reaches 4 µM, counting equality as reaching it, for C[n+]1c(-c2ccc(/C=C/C=N\NC(=O)c3ccc(C(=O)N/N=C\C=C\c4ccc(-c5cn6ccccc6[n+]5C)cc4)cc3)cc2)cn2ccccc21
# output y

# input Evaluate CCCSc1nc(-c2ccc(OC)cc2)c(C#N)c(=O)n1C1OC(COC(C)=O)C(OC(C)=O)C(OC(C)=O)C1OC(C)=O (stereo unspecified) : TGI at minimum 4 µM?
# output y

# input Dear colleague, could you confirm whether CC(=O)OC(Cn1cncn1)(Cn1cncn1)c1ccc(Cl)cc1Cl has TGI at or above 4 µM?
# output y

# input Assess whether reported TGI for O=c1cc(-c2ccccc2)oc2c(-c3cc(Cl)cc4c(=O)cc(-c5ccccc5)oc34)cc(Cl)cc12 sits at 4 µM or higher.
# output y
